ASSAY SYSTEM: T1, recombinant Fc-TrkB antigen (human) (human, UniProt Q16620 32-430, limits assumed)
T1 construct: Biotinylated for the ForteBio assays; also called Fc-hTrkB; human Fc-TrkB; not shown: Fc part
ASSAY OVERVIEW: BLI (ForteBio Octet), biotinylated Fc-TrkB on streptavidin sensors, Fab at 1E-7 M
MEASUREMENT KIND: koff (s⁻¹)
Quick reminder: number only, in s⁻¹, skip the unit.

So for Fab TR144-1 (Fab, V domains shown, Fab with human V-segments, expressed in E. coli) VH: QVQLVQSGAEVKKPGASVKVSCKASGYTFTAYDMHWVRQAPGQGLEWMGWIDPRSGDTSYKQKFQGRVTMTRDTSISTAYMELHRLRSDDTAVYYCTGVTTWFAYWGQGTLVTVSS VL: MDVVMTQSPLSLPVTLGQPASISCRSSQSLVHSNGNTYLNWYQQKPGQPPRLLIYKISNRFSGVPDRFSGSGAGTDFTLKISRVEAEDVGVYYCMQGTHEPYTFGQGKLEIK , the logged koff turned out to be 0.00366
